The reader will find reported IC50 values listed item by item below.
test system: CCRF-CEM/VBL100; experiment: cells; type: cell-based, human; conditions: read-out: IC50
Value expressed in nM; do not type the unit.

In the examples that follow, each entry is paired with its recorded IC50.
{"Molecular String": "C/C(=C\\c1csc(C)n1)[C@@H]1C[C@@H]2O[C@]2(C)CCC[C@H](C)[C@H](O)[C@@H](C)C(=O)C(C)(C)[C@@H](O)CC(=O)O1", "U": "nM", "IC50": 2}
{"Molecular String": "CC[C@@]12CCC[C@H](C)[C@H](O)[C@@H](C)C(=O)C(C)(C)[C@@H](O)CC(=O)O[C@H](/C(C)=C/c3csc(C)n3)C[C@@H]1O2", "U": "nM", "IC50": 7.2}

Kindly note: CCRF-CEM/VBL100, "C/C1=C/C[C@@H](/C(C)=C/c2csc(C)n2)OC(=O)C[C@H](O)C(C)(C)C(=O)[C@H](C)[C@@H](O)[C@@H](C)CCC1" , IC50 value reported: 17
